Origin of measurements: PubChem BioAssay (NCI)

Tested on: A498 renal
Experiment: NCI tumour cell line growth inhibition, 48 h
Exercise: for every item that follows, state its recorded log10 TGI.
The base-10 logarithm of TGI, taken with TGI in µM, is what appears here.

Previously resolved entries follow.
[[record]]
compound = "CSc1ccc2c(cc1=O)[C@@H](NC(=O)c1cccc([N+](=O)[O-])c1)CCc1cc(O)c(O)c(O)c1-2"
observed_value = 1.96

[[record]]
compound = "CC[C@H](C)[C@H](NC(=O)[C@H]1CCCCN1C)C(=O)N(C)[C@H](C[C@@H](OC(C)=O)c1cccc(C(=O)N[C@@H](Cc2ccccc2)C[C@H](C)C(=O)OC)n1)C(C)C"
observed_value = -1.78

[[record]]
compound = "Cc1ccc(O)c(NC(=O)c2cccc(Nc3ccnc(C(F)(F)F)c3)c2)c1"
observed_value = 1.31

[[record]]
compound = "CC1=NN(c2cccc(Cl)c2)C2(SCC(=O)N2c2nc3ccccc3s2)C1=CC=Cc1ccccc1 (configuration not stated)"
observed_value = 1.79


Kindly consider the entry below.
Please report the measured log10 TGI for Cc1ccc(O)c(C(c2cccc(C(c3cc(C)ccc3O)c3cc(C)ccc3O)c2)c2cc(C)ccc2O)c1
0.47
